Ref: PubChem BioAssay (NCATS)

- procedureSummary: Quantitative highthroughput screen to assess conditional lethalithy of SEM cells grown in RPMI1640 with dialyzed fetal bovine serum (RPMI+ds) (AID 1963884); further: nearly all actives have a fitted effect of over 35% in size
- conditionDetails: SEM B-ALL cells, RPMI+dialyzed FBS, CellTiter-Glo viability, 48 h; series mostly up to 45.8 µM
Results filed as inconclusive are left out. Active and inactive are the calls of the source. The call rests on the fitted dose curve; in most records, active means well fitted cell-killing curve with a large enough effect; inconclusive means small, poorly fitted or top-dose-only effect, or effect the other way; inactive means no such curve, though single readings can be large or run the other way.
Possible outcomes: active, inactive

INSERT INTO measurements (compound, group) VALUES
  ('Nc1cc(C(F)(F)F)c(-c2cc(N3CCOCC3)nc(N3CCOCC3)n2)cn1', 'active'),
  ('O=C(/C=C\n1cnc(-c2cc(C(F)(F)F)cc(C(F)(F)F)c2)n1)NNc1cnccn1', 'active'),
  ('Nc1cccc2c1CN(C1CCC(=O)NC1=O)C2=O (centres undefined)', 'inactive'),
  ('CC(C)=CCCC(C)=CCCC(C)=CCSc1ccccc1C(=O)O', 'active'),
  ('Cc1cc2c(cc1C1(c3ccc(C(=O)O)cn3)CC1)C(C)(C)CCC2(C)C', 'active'),
  ('Cc1cnc(Nc2ccc(N3CCN(C)CC3)cc2)nc1Nc1cccc(S(=O)(=O)NC(C)(C)C)c1', 'active'),
  ('CC(C)Cn1cnc2c(N)nc3ccccc3c21', 'inactive'),
  ('COc1ccc(CCN2CCN(CCCc3ccccc3)CC2)cc1OC', 'inactive'),
  ('O=C(O)COCCN1CCN(C(c2ccccc2)c2ccc(Cl)cc2)CC1 (centres undefined)', 'inactive'),
  ('O=C(O)c1cc(=O)c2c(OCC(O)COc3cccc4oc(C(=O)O)cc(=O)c34)cccc2o1', 'inactive'),
  ('NC1=N[C@H]2[C@H](CS[C@H]2CCCCC(=O)O)N1', 'inactive'),
  ('CCN(CC)CCOc1ccc(Nc2ncc3cc(-c4c(Cl)cccc4Cl)c(=O)n(C)c3n2)cc1', 'active'),
  ('COc1ccnc(CS(=O)c2nc3ccc(OC(F)F)cc3[nH]2)c1OC (centres undefined)', 'inactive'),
  ('O=c1c(-c2ccc(O)cc2)coc2cc(OC3O[C@H](CO)[C@H](O)[C@H](O)[C@H]3O)cc(O)c12 (some centres undefined)', 'inactive'),
  ('COc1ccc(C(C)=O)c(O)c1', 'inactive'),
  ('C[C@@H]1O[C@@H](O[C@H]2CC[C@@]3(C)[C@H](CC[C@@H]4[C@H]3C[C@@H](O)[C@]3(C)[C@@H](C5=CC(=O)OC5)CC[C@]43O)C2)C[C@H](O)[C@@H]1O[C@H]1C[C@H](O)[C@H](O[C@H]2C[C@H](O)[C@@H](O)[C@@H](C)O2)[C@H](C)O1 (stereo in doubt)', 'active'),
  ('CCCCn1c(=O)n(Cc2ccccc2F)c(=O)c2[nH]c(Cc3ccc(NC(C)=O)cc3)nc21', 'inactive'),
  ('FC(F)(F)c1ccc(Nc2nc3ccc(Oc4ccnc(-c5ncc(C(F)(F)F)[nH]5)c4)cc3[nH]2)cc1', 'active'),
  ('O=C(Cc1ccc(-c2ccc(OCCN3CCOCC3)cc2)cn1)NCc1ccccc1', 'active'),
  ('COc1cc(C)c(Sc2cnc(NC(=O)c3ccc(CNC(C)C(C)C)cc3)s2)cc1C(=O)N1CCN(C(C)=O)CC1 (centres undefined)', 'active'),
  ('C=C1C[C@@]2(O)O[C@@]3(C[C@H]2C(C)C)[C@H](C)CC[C@H]13', 'inactive'),
  ('CCCCc1ccc(NS(=O)(=O)c2ccc(C)c(C(=O)N3CCN(c4cccc(C)c4C)CC3)c2)cc1', 'inactive'),
  ('Cc1nc(-c2ccc(OCC(C)C)c(C#N)c2)sc1C(=O)O', 'inactive'),
  ('CC(=O)Oc1ccccc1C(=O)Nc1ncc([N+](=O)[O-])s1', 'inactive'),
  ('COc1nc(C)cnc1NS(=O)(=O)c1cccnc1-c1ccc(-c2nnco2)cc1', 'inactive'),
  ('Cc1ccc(-c2cc(C(F)(F)F)nn2-c2ccc(S(N)(=O)=O)cc2)cc1', 'inactive'),
  ('CCCCOCCOc1nc(-c2ccc(C(=O)O)c(F)c2)sc1C', 'inactive'),
  ('O=C(Nc1cc2cc[nH]c2cn1)c1ccccc1', 'active'),
  ('C[C@]12CC[C@H](O)CC1=CC[C@@H]1[C@H]2CC[C@]2(C)C(c3cccnc3)=CC[C@H]12', 'inactive'),
  ('C[C@]12CC[C@@H]3c4ccc(O)cc4C[C@@H](CCCCCCCCCS(=O)CCCC(F)(F)C(F)(F)F)[C@H]3[C@H]1CC[C@H]2O (some centres undefined)', 'inactive'),
  ('COc1ccc(-c2oc3c(CC=C(C)C)c(O)cc(O)c3c(=O)c2O)cc1', 'inactive'),
  ('C=CCc1cccc(C=NNC(=O)CN2CCN(Cc3ccccc3)CC2)c1O', 'active'),
  ('CC1(C)Cc2c(-c3ccccc3)c(-c3ccc(Cl)cc3)c(CC(=O)O)n2C1', 'inactive'),
  ('O=c1[nH]cc(F)c(=O)[nH]1', 'active'),
  ('COc1cc(Nc2c(C#N)cnc3cc(OCCCN4CCN(C)CC4)c(OC)cc23)c(Cl)cc1Cl', 'active'),
  ('NC(=NCc1ccccc1)NC(=O)c1nc(Cl)c(N)nc1N', 'active'),
  ('CC(=O)OCCN1C(=O)c2c(C)nc3ccc(S(=O)(=O)N4CCOCC4)cc3c2C1=O', 'inactive'),
  ('OC[C@H]1O[C@@H](Oc2ccc(O)cc2)[C@H](O)[C@@H](O)[C@H]1O', 'inactive'),
  ('CCN(c1ccccc1)c1cc(NC)[n+](C)c(C)n1', 'inactive');
